Test system: COLO 205 colon
TEST SUMMARY: NCI tumour cell line growth inhibition, 48 h
Each entry below carries its reported GI50.

# example entries with known answers
Query: Any idea what its GI50 is? The compound is `COc1cnc2c(c1)C(=O)c1c-2n(CCCNCCO)c(=O)c2cc(OC)c(OC)cc12`
Response: 3330 nM

Query: Request the reported GI50 associated with `COc1ccc(-c2nc(S(=O)(=O)c3ccccc3)c(S(C)(=O)=O)o2)cc1`
Response: 2220 nM

Query: Return reported GI50; argument: `C=CC(=O)N1CCN(c2ccc3nc4c(nc3c2C(F)(F)F)C(=O)c2ncccc2C4=O)CC1`
Response: 2420 nM

Others:
Query: If you can, please state the reported GI50 value of `O=C(/C=C/c1ccc(F)cc1)c1nc2ccccc2n1Cc1ccc(Br)cc1` .
Response: 2350 nM

* * *

Test system: SK-OV-3 ovarian
TEST SUMMARY: NCI tumour cell line growth inhibition, 48 h
Known GI50 of a selection of molecules

Completed entries (count: 3):
Query: Please provide the recorded GI50 for `COc1ccc(-c2nc(S(=O)(=O)c3ccccc3)c(S(C)(=O)=O)o2)cc1` , tested on SK-OV-3 ovarian.
Response: 21.7 µM

Query: Short answer please: GI50, SK-OV-3 ovarian, entry CCc1ccc(SC2c3cc(OC)ccc3Oc3nc(N)c(C#N)c(N)c32)cc1 (centres undefined)
Response: 6.62 µM

Query: Please provide the recorded GI50 for `O=C(/C=C/c1ccc(F)cc1)c1nc2ccccc2n1Cc1ccc(Br)cc1` , tested on SK-OV-3 ovarian.
Response: 10.5 µM

Attention now shifts to the item below.
Query: State its GI50 on SK-OV-3 ovarian: CN(C)c1nc(NCCNS(=O)(=O)c2ccc(C3=Nc4c(N)nc(N)nc4NC(c4ccc(C(F)(F)F)cc4)C3)cc2)nc(N2CCOCC2)n1 (centres undefined)
Response: 69.7 µM

* * *

Tested on: CCRF-CEM leukemia
TEST SUMMARY: NCI tumour cell line growth inhibition, 48 h; in the data active = GI50 below about 0.43 µM; inactive = the rest
Lab note: assign the record to one of active, inactive

// below: answered molecules
Query: What was the test verdict on `C=CC(=O)N1CCN(c2ccc3nc4c(nc3c2C(F)(F)F)C(=O)c2ncccc2C4=O)CC1` ?
Response: inactive

Query: Per the assay record, what outcome was assigned to `O=C(/C=C/c1ccc(F)cc1)c1nc2ccccc2n1Cc1ccc(Br)cc1` ?
Response: inactive

Query: Outcome? CCc1ccc(SC2c3cc(OC)ccc3Oc3nc(N)c(C#N)c(N)c32)cc1 (centres undefined)
Response: active

Next up:
Query: Please share the test call associated with `COc1ccc(-c2nc(S(=O)(=O)c3ccccc3)c(S(C)(=O)=O)o2)cc1` .
Response: inactive

* * *

System: MDA-MB-468 breast
TEST SUMMARY: NCI tumour cell line growth inhibition, 48 h
Please use 1 whenever TGI is not below 6 µM, and 0 whenever it is.

Past entries and their recorded results:
Query: Please check the record `C[C@H](c1ccc(F)cc1CCCC(=O)O)N(c1cc(F)ccc1F)S(=O)(=O)c1ccc(Cl)cc1` and state if its TGI is at or above 6 µM.
Response: 1

Query: // inclusive: TGI at least 6 µM? input: CCCCCCC1N=C(N)N=C(N)N1c1cccc(Cl)c1 (configuration not stated)
Response: 0

Query: Could you tell me if the measured TGI of `N#Cc1c(NCc2ccccc2)nc(NCc2ccccc2)c(C#N)c1-c1ccc(Cl)cc1` reaches 6 µM or more?
Response: 1

Query: Please check the record `CCC(C)(C)c1cc(O)c(C(C)(C)CC)cc1O` and state if its TGI is at or above 6 µM.
Response: 0

New cases:
Query: Dear colleague, could you confirm whether `CN1CC=C(c2cc(NC(=O)Nc3ccc(Oc4ccnc(NC(=O)C5CC5)c4)c(F)c3)cc(C(F)(F)F)c2)CC1` has TGI at or above 6 µM?
Response: 0

Query: Reported TGI at or above 6 µM? COC1=CC(c2ccc[nH]2)=N/C1=C\c1[nH]c(C)c(C(=O)CCC(=O)Oc2ccc3c(c2)CCC2C3CC[C@]3(C)[C@@H](O)CC[C@@H]23)c1C (some centres not stated)
Response: 1

Query: Record `COC(=O)c1ccc2nc(-c3cc4ccccc4n3C)n(CCCCOc3cc4c(cc3OC)C(=O)N3CCC[C@H]3C=N4)c2c1` ; criterion: TGI no lower than 6 µM. Met?
Response: 0

Query: Say whether `COc1ccc(-c2cc(/C=C3\C(=O)Nc4cc(Cl)ccc43)[nH]n2)cc1` shows TGI of 6 µM or more.
Response: 1

Query: Reported TGI reaches at least 6 µM for `CC1=C/C=C/C(=O)O[C@@H]([C@H](C)[C@H](O)[C@@H](C)NC(=O)C(C)C)[C@H](C)/C=C/C(C)=C/[C@H]2C=CCC[C@@]2(C)\C=C\1` ?
Response: 1

Query: State whether the measured TGI reaches 6 µM, counting equality as reaching it, for `CCn1c(-c2nonc2N)nc2c(C#CC(C)(C)O)ncc(OC3CCNCC3)c21`
Response: 1

Query: Hi team, for `Cc1ccc(-c2nc3nc(-c4ccc(F)cc4)nc(N4CCNCC4)c3o2)cc1` , is the recorded TGI at or above 6 µM?
Response: 0

Query: Entry `CN1CCN(Cc2ccc(NC(=O)c3cncc(C#Cc4c(N)ncc5ccc(C#N)cc45)c3)cc2C(F)(F)F)CC1` : is its TGI no less than 6 µM?
Response: 1

* * *

System: ACHN renal
TEST SUMMARY: NCI tumour cell line growth inhibition, 48 h
ATTRIBUTE MEASURED: GI50

Answered examples (3):
Query: State its GI50 on ACHN renal: `COc1cnc2c(c1)C(=O)c1c-2n(CCCNCCO)c(=O)c2cc(OC)c(OC)cc12`
Response: 2.1 µM

Query: Hello, I am looking for reported GI50 with ACHN renal for CCc1ccc(SC2c3cc(OC)ccc3Oc3nc(N)c(C#N)c(N)c32)cc1 (centres undefined) . Could you help?
Response: 5.6 µM

Query: What measured GI50 is associated with `C=CC(=O)N1CCN(c2ccc3nc4c(nc3c2C(F)(F)F)C(=O)c2ncccc2C4=O)CC1` on ACHN renal?
Response: 6.41 µM

Let us examine a further case.
Query: Which GI50 is reported with ACHN renal for this entry: `O=C(/C=C/c1ccc(F)cc1)c1nc2ccccc2n1Cc1ccc(Br)cc1` ?
Response: 2.8 µM

* * *

Test system: MDA-MB-468 breast
TEST SUMMARY: NCI tumour cell line growth inhibition, 48 h; in the data active means GI50 below about 0.43 µM; inactive means the rest
Give your call using only these classes: active, inactive

Solved cases (5 shown):
Query: Hi team, can someone confirm the assay call for `CS(=O)(=O)N1CCC(n2c(=O)c(Oc3ccc(F)cc3F)cc3cnc(NC4CCOCC4)nc32)CC1` ?
Response: inactive

Query: Test call for this compound, please: `COc1cnc2c(c1)C(=O)c1c-2n(CCCNCCO)c(=O)c2cc(OC)c(OC)cc12`
Response: inactive

Query: Returns: the outcome recorded for COc1ccc2c(c1)N(Cc1ccc(Cl)cc1)CCC2N1CCCC1=O (configuration not stated) in this assay.
Response: inactive

Query: Recorded call for `O=C(/C=C/c1ccc(F)cc1)c1nc2ccccc2n1Cc1ccc(Br)cc1` ?
Response: inactive

Query: Kindly provide the recorded test outcome for the following compound: `Oc1cc(N2CC2)c(O)cc1N1CC1`
Response: active

Please examine the following record next.
Query: # fetch the recorded call for `Cc1ccc(C2=Nn3c(nnc3-c3ccccc3)SC2)cc1` here
Response: inactive

* * *

Test system: UACC-257 melanoma
TEST SUMMARY: NCI tumour cell line growth inhibition, 48 h
Each entry below carries its recorded TGI.
API: value field is a number in µM; no unit string.

See these solved cases before continuing.
Query: Write down the reported TGI of CCc1ccc(SC2c3cc(OC)ccc3Oc3nc(N)c(C#N)c(N)c32)cc1 (centres undefined) , test system: UACC-257 melanoma.
Response: 29.6

Query: Enter reported TGI observed with UACC-257 melanoma for `C=CC(=O)N1CCN(c2ccc3nc4c(nc3c2C(F)(F)F)C(=O)c2ncccc2C4=O)CC1`
Response: 4.16

Query: Please tell me: TGI of `O=C(/C=C/c1ccc(F)cc1)c1nc2ccccc2n1Cc1ccc(Br)cc1` , system UACC-257 melanoma?
Response: 14.7

Attention now turns to another entry.
Query: Form field: TGI recorded for `COc1ccc(-c2nc(S(=O)(=O)c3ccccc3)c(S(C)(=O)=O)o2)cc1` with UACC-257 melanoma (enter value)
Response: 28

* * *

Measured TGI accompanies every entry in the list below.
System: DU-145 prostate
TEST SUMMARY: NCI tumour cell line growth inhibition, 48 h
Give your result in µM as a bare value.

Query: Which TGI is listed for `O=C(/C=C/c1ccc(F)cc1)c1nc2ccccc2n1Cc1ccc(Br)cc1` ?
Response: 26

Query: Find the recorded TGI belonging to `COc1cnc2c(c1)C(=O)c1c-2n(CCCNCCO)c(=O)c2cc(OC)c(OC)cc12` and report it.
Response: 12.1

Field: next molecule
Query: # lookup: TGI of `C=CC(=O)N1CCN(c2ccc3nc4c(nc3c2C(F)(F)F)C(=O)c2ncccc2C4=O)CC1`
Response: 20
